assay: Log D by shake flask method (octanol / PBS pH 7.4, HPLC); format: physicochemical; settings: octanol / PBS pH 7.4, shake flask; read-out: logD
Metric name: logD

- CCNC(=O)C(=O)CC[C@H](NC(=O)c1c(C)ncn1C)C(=O)Nc1cccn(CC(=O)NC23CC4CC(C)(CC(C)(C4)C2)C3)c1=O: 1 to 3
- CCNC(=O)C(=O)CC[C@H](NC(=O)c1[nH]c2ccccc2c1C)C(=O)Nc1cccn(CC(=O)NC2C3CC4CC(C3)CC2C4)c1=O (stereo partly drawn): 3 to 5
- CCNC(=O)C(=O)CC[C@H](NC(=O)c1ccc2cnccc2n1)C(=O)Nc1cccn(CC(=O)NC2C3CC4CC2CC(CC)(C4)C3)c1=O (stereo partly drawn): 3 to 5
- CCNC(=O)C(=O)CC[C@H](NC(=O)c1cc2cccnc2nc1C)C(=O)Nc1cccn(CC(=O)NC23CC(C2)C3)c1=O: < 1
- CCNC(=O)C(=O)CC[C@H](NC(=O)c1c[nH]cc1C(C)(C)C)C(=O)Nc1cccn(CCC23CC4CC(CC(C4)C2)C3)c1=O: 3 to 5
- CCNC(=O)C(=O)CC[C@H](NC(=O)c1nc2ccccc2[nH]1)C(=O)Nc1cccn(CC(=O)NC2C3CC4CC(C3)CC2C4)c1=O (stereo partly drawn): 3 to 5
- CCNC(=O)C(=O)CC[C@H](NC(=O)[C@H]1COCCN1)C(=O)Nc1cccn(CC(=O)NC2C3CC4CC2CC(C)(C4)C3)c1=O (stereo partly drawn): 1 to 3
- CCNC(=O)C(=O)CC[C@H](NC(=O)c1ncns1)C(=O)Nc1cccn(CC(=O)NC23CC(C2)C3)c1=O: < 1
- CCNC(=O)C(=O)CC[C@H](NC(=O)c1oc2ccccc2c1C)C(=O)Nc1cccn(CC(=O)N[C@@H]2C[C@H]3CC[C@@H]2C3)c1=O: 1 to 3
- CCNC(=O)C(=O)CC[C@H](NC(=O)c1oc2ccccc2c1C)C(=O)Nc1cccn(CC(=O)NC2C3CC4CC(C3)CC2C4)c1=O (stereo partly drawn): 3 to 5
- CCNC(=O)C(=O)CC[C@H](NC(=O)c1cncn1C)C(=O)Nc1cccn(CC(=O)NC[C@@H]2CC[C@@H]3C[C@H]2C3(C)C)c1=O: 1 to 3
- CCNC(=O)C(=O)CC[C@H](NC(=O)c1cc2ccccc2s1)C(=O)Nc1cccn(CC(=O)NC2C3CC4CC(C3)CC2C4)c1=O (stereo partly drawn): 3 to 5
- CCNC(=O)C(=O)CC[C@H](NC(=O)c1c(C)nc2sccn12)C(=O)Nc1cccn(CC(=O)N(C)C2C3CC4CC(C3)CC2C4)c1=O (stereo partly drawn): 3 to 5
- CCNC(=O)C(=O)CC[C@H](NC(=O)c1nonc1N)C(=O)Nc1cccn(CC(=O)NC23CC(C2)C3)c1=O: < 1
- CCNC(=O)C(=O)CC[C@H](NC(=O)c1sc(Br)cc1C)C(=O)Nc1cccn(CC(=O)NC2C3CC4CC(C3)CC2C4)c1=O (stereo partly drawn): 3 to 5
